System: SF-268 CNS
Experiment: NCI tumour cell line growth inhibition, 48 h; in the data active means GI50 below about 0.43 µM; inactive means the rest
The reply should be one of these categories: active, inactive

C[C@]12CCc3nc(Nc4cccc(O)c4)sc3C1=CC[C@@H]1[C@@H]2CC[C@]2(C)/C(=N\NC(N)=S)CC[C@@H]12 : inactive
CN(C)c1ccc(/C=C/c2ccnc3c(O)cccc23)cc1 : inactive
NCCCNc1nc2ccccc2c2c(=O)c3cc(F)cc(F)c3sc12 : inactive
N#Cc1c(NC(=O)NCc2ccccc2)sc2c1CCCC2 : inactive
CO/C=C/C(=O)c1cc2cnc3c(=N)cc(NC(=O)C(C)C)c([nH]1)c23 : active
CC[C@@H]1[C@@H](C)O[C@@](O)([C@@H](C)[C@H](O)[C@H](C)[C@H]2OC(=O)/C=C/C=C/[C@H](C)[C@@H]([C@@H](C)[C@@H](O)[C@H](C)[C@@]3(O)C[C@@H](O[C@H]4C[C@@H](O)[C@H](O)C(C)O4)[C@H](CC)[C@@H](C)O3)OC(=O)/C=C/C=C/[C@@H]2C)C[C@H]1O[C@@H]1C[C@@H](O)[C@H](O)C(C)O1 (some centres not stated) : active

Lab note: next compound to report on.
Incoming: Given COc1cc([C@@H]2c3cc4c(c(O)c3C[C@H]3COC(=O)[C@@H]32)OCO4)cc(OC)c1OC , state the outcome it received in this test.
Outgoing: inactive

* * *

Test system: SF-539 CNS
Test: NCI tumour cell line growth inhibition, 48 h; in the data active = GI50 below about 0.43 µM; inactive = the rest
The reply should be one of these categories: Y (active), N (inactive)

See these solved cases before continuing.
O=C(COc1ccc(/C=C2\COc3ccccc3C2=O)cc1)Nc1nccs1 : N
CCOC(=O)c1ccccc1OC(=O)NNc1ccccc1 : Y

Incoming: Given Nc1ccccc1NC(=O)c1ccc(CNc2nccc(-c3cccnc3)n2)cc1 , state the outcome it received in this test.
Outgoing: N

Incoming: Given Cc1cc(=O)[nH]c(N/N=C/c2cc(Br)ccc2O)n1 , state the outcome it received in this test.
Outgoing: N

Incoming: Given C=CCC(N[C@@H](CO)c1ccccc1)c1cn(Cc2ccccc2Cl)c(=O)n(Cc2ccccc2Cl)c1=O (stereo not given in full) , state the outcome it received in this test.
Outgoing: N

Incoming: Given C[C@]12CC[C@@H]3c4cc(OC(F)F)c(O)cc4CC[C@H]3[C@@H]1CC[C@@H]2OS(N)(=O)=O , state the outcome it received in this test.
Outgoing: N

Incoming: Given CCCCCCCC/C=C/CCCCCCCC1=NC(C)(C)CN1CC(C)O (stereo not given) , state the outcome it received in this test.
Outgoing: N

Incoming: Given CC[C@H](NC(=O)[C@H]1CCCCN1C)C(=O)N(C)[C@H](C[C@@H](OC(C)=O)c1nc(C(=O)N[C@@H](Cc2ccccc2)C[C@H](C)C(=O)O)cs1)C(C)C , state the outcome it received in this test.
Outgoing: Y

Incoming: Given COc1ccc(C(=O)Nc2ncc(Cc3cccc(Cl)c3)s2)cc1OC , state the outcome it received in this test.
Outgoing: Y

* * *

System: CAKI-1 renal
Assay: NCI tumour cell line growth inhibition, 48 h; in the data active = GI50 below about 0.43 µM; inactive = the rest
The reply should be one of these categories: active, inactive

c1ccc(N2N=C(c3cccc(Nc4ccncc4)c3)CC2c2ccc3c(c2)OCO3)cc1 (configuration not stated) : inactive

Lab note: next molecule to report on.
Incoming: Given CCOC(=O)c1ccc(Nc2sc(C(=O)c3ccc(Br)cc3)c(N)c2C#N)cc1 , state the outcome it received in this test.
Outgoing: inactive
